FYI, the data here is from ChEMBL document CHEMBL1151841.

- Test system: Radical scavenging activity
- Experiment Summary: Antioxidant activity assessed as DPPH radical scavenging activity after 5 mins
- Assay type: functional
pIC50: −log10 of the molar value.
Observable: pIC50

COc1cc(CCc2c(O)ccc(O[C@@H]3O[C@H](CO)[C@@H](O)[C@H](O)[C@H]3O)c2C(C)=O)ccc1O [SCORZODIHYDROSTILBENE A] : 3.98

(P) Oc1ccc(/C=C/c2cc(O)cc(O)c2)cc1
(Q) COc1ccc(CCc2c(O[C@@H]3O[C@H](CO)[C@@H](O)[C@H](O)[C@H]3O)ccc(O)c2C(C)=O)cc1OC [SCORZODIHYDROSTILBENE D]
## Input Lab notebook, comparison: P versus Q , higher pIC50 goes to which? // output: label of the selected item
## Output P

----------
- Tested on: Radical scavenging activity
- Experiment Summary: Antioxidant activity assessed as DPPH radical scavenging activity after 5 mins
- Type: functional
Observable: IC50 (µM)

CC(=O)c1c(O[C@@H]2O[C@H](CO)[C@@H](O)[C@H](O)[C@H]2O)ccc(O)c1CCc1ccc(O)cc1 [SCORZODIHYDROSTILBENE C] : 486

(A) COc1cc(CCc2c(O)ccc(O[C@@H]3O[C@H](CO)[C@@H](O)[C@H](O)[C@H]3O)c2C(C)=O)cc(-c2cc(CCc3c(O)ccc(O[C@@H]4O[C@H](CO)[C@@H](O)[C@H](O)[C@H]4O)c3C(C)=O)cc(OC)c2O)c1O [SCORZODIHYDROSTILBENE E]
(B) COc1ccc(CCc2c(O)ccc(O[C@@H]3O[C@H](CO)[C@@H](O)[C@H](O)[C@H]3O)c2C(C)=O)cc1OC [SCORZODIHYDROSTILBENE B]
## Input Returns the identifier with the smallest measured IC50 among A and B . Label of pick, please.
## Output A
